test system: blood coagulation; experiment: PT and aPTT assay in cynomolgus monkeys (Example 46); format: in vivo; details: Day 55; platelet poor plasma; relative to PBS group
Strand notation (5' to 3'): a small letter for the sugar, then the base; units joined by * are phosphorothioate-linked, units joined directly phosphodiester-linked; [ ] holds rarer units or linkages, { } end groups; capitals alone tell only the bases. e = 2'-O-(2-methoxyethyl) (MOE); [5mC] = 5-methylcytosine; d = 2'-deoxy (DNA)
value_kind: PT ratio (INR)
Give the figure only, with no unit attached.

1) ISIS 449710: 3-8-3, 4-8-4, 2-10-2, 3-10-3 or 4-10-4 MOE microwalk gapmer (Table 46) (antisense e[5mC]*eA*e[5mC]*dA*dG*dT*dT*dT*d[5mC]*dT*dG*dG*d[5mC]*eA*eG*eG); 1.06
2) ISIS 445531: 5-8-5 or 6-8-6 MOE microwalk gapmer (Table 44) (antisense eG*eG*e[5mC]*eA*eT*dT*dG*dG*dT*dG*d[5mC]*dA*d[5mC]*eA*eG*eT*eT*eT); 1.06
3) ISIS 445522: 5-8-5 or 6-8-6 MOE microwalk gapmer (Table 44) (antisense eG*e[5mC]*eA*e[5mC]*eA*dG*dT*dT*dT*d[5mC]*dT*dG*dG*e[5mC]*eA*eG*eG*e[5mC]); 1.01

Q: Requested read-out: PT ratio (INR). Entry: ISIS 449708: 3-8-3, 4-8-4, 2-10-2, 3-10-3 or 4-10-4 MOE microwalk gapmer (Table 46) (antisense eA*e[5mC]*eA*dG*dT*dT*dT*d[5mC]*dT*dG*dG*e[5mC]*eA*eG)
A: 1.04

Q: Requested read-out: PT ratio (INR). Entry: ISIS 449707: 3-8-3, 4-8-4, 2-10-2, 3-10-3 or 4-10-4 MOE microwalk gapmer (Table 46) (antisense e[5mC]*eA*e[5mC]*eA*dG*dT*dT*dT*d[5mC]*dT*dG*dG*e[5mC]*eA*eG*eG)
A: 1.00
